target: QPCTL (Homo sapiens (Human), UniProt Q9NXS2); assay: QPCTL Enzymatic Activity Assay (coupled-enzyme fluorescent assay, H-Gln-AMC substrate); format: biochemical; details: recombinant truncated human QPCTL 10-12 nM, 10 μM H-Gln-AMC; read-out: QPCTL Inhibition IC50
Sequence (Q9NXS2 53-382): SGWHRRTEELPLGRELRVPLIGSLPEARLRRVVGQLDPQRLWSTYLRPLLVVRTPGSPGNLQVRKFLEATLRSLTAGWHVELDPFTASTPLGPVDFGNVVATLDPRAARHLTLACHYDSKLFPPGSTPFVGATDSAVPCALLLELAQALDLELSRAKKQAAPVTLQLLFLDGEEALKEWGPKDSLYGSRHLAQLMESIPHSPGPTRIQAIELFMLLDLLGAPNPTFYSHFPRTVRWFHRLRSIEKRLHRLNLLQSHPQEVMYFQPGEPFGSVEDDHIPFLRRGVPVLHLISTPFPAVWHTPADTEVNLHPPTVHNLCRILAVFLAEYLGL
propertyName: IC50

Sample answers from the record:
Could you tell me which IC50 is on file for COc1cc(F)c(-c2ccc(F)nc2)c(N2CCC(c3nncn3C)CC2)c1C#N ?
< 100 nM

Next up: Cc1cc(-c2c(F)ccc(C#N)c2N2CCC(c3nncn3C)CC2)cnn1
100 to 1000 nM

Follow-up entry: Cn1cnnc1C1CCN(c2c(-c3ccc(F)nc3)ccc(OC3CCOC3)c2C#N)CC1 (single isomer, unassigned) [Example 88]
< 100 nM

Similarly, Cn1cnnc1C1[C@H]2CN(c3c(C#N)cccc3-c3ccc(F)nc3)C[C@@H]12 (some centres unmarked) ?
100 to 1000 nM

What about Cn1cnnc1C1CCN(c2c(C#N)cccc2-c2cncc(Br)c2)CC1 ?
< 100 nM

Further cases:
# get_value(readout='IC50', item= Cn1cnnc1C1CCN(c2c(-c3ccc(F)nc3)ccnc2C#N)CC1 )
< 100 nM

Could you do the same for Cn1cnnc1C1CCN(c2c(C#N)cccc2-c2ccc(F)cc2F)CC1 , please?
100 to 1000 nM

Same thing, different compound: Cn1cc(-c2ccc(-c3ccc(F)nc3)c(N3CCC(c4nncn4C)CC3)c2C#N)cn1
< 100 nM

Cited source: patent US20240101544A1
